The measured values listed here are drawn from patent US12606528B2.

Tested on: NF-κB
ASSAY INFO: NF-κB assay: THP1-NF-κB-LUC cells, LPS-stimulated secreted luciferase
Type: cell-based
ASSAY CONTEXT: THP1-NF-κB-LUC cells; compounds 2 hours before LPS (10 ng/mL) for 18 hours; secreted luciferase; read-out: IC50 (NF-κB assay)
pIC50: −log10 of the molar value.
QUANTITY NAME: pIC50

Examples with their reported pIC50 follow.
CC(=O)N1CCOc2cc(S(=O)(=O)Nc3cccc(Cl)c3)c(C)cc21 [BC181350]
5.00 to 6.00
CC(C)CC1Oc2c(cc(Br)cc2S(=O)(=O)Nc2ccccc2)NC1=O (stereo not shown) [BC19761]
6.00 to 7.00
Cc1cc(C)cc(NS(=O)(=O)c2cc3c(cc2C)NC(=O)CO3)c1 [BC181378]
5.00 to 6.00
CC1Oc2c(cc(Br)cc2S(=O)(=O)N2CCN(C)CC2)NC1=O (stereo not shown) [BC19228]
< 5.00

If you can, please state the reported pIC50 value of O=c1c(S(=O)(=O)c2ccc(F)c(F)c2)c[nH]c2ccncc12 [BC19201] .
< 5.00

If you can, please state the reported pIC50 value of COc1ccc(S(=O)(=O)c2cn(CC(=O)Nc3ccc(F)cc3)c3ccc(C)cc3c2=O)cc1 [BC18335] .
< 5.00

If you can, please state the reported pIC50 value of O=c1[nH]ccc2cc(Sc3ccc(F)cc3)ccc12 [BC19580] .
< 5.00

If you can, please state the reported pIC50 value of CCc1ccc(NS(=O)(=O)c2cc(Br)cc3c2OCC(=O)N3)cc1 [BC19179] .
> 7.00

If you can, please state the reported pIC50 value of Cc1c(Cl)cc2c(c1S(=O)(=O)Nc1ccc(F)c(F)c1)OCC(=O)N2 [BC19489] .
> 7.00

If you can, please state the reported pIC50 value of COc1ccc(NS(=O)(=O)c2cc(Cl)cc3c2OC(C)C(=O)N3)cc1Cl (stereo not shown) [BC19292] .
> 7.00

If you can, please state the reported pIC50 value of O=c1[nH]ccc2cc(S(=O)(=O)c3ccc(Cl)cc3)ccc12 [BC19516] .
< 5.00

If you can, please state the reported pIC50 value of CCc1cccc(NS(=O)(=O)c2cc3c(cc2Cl)NC(=O)C(C)O3)c1 (stereo not shown) [BC19711] .
> 7.00

If you can, please state the reported pIC50 value of CC1Oc2cc(S(=O)(=O)Nc3ccc(F)cc3)c(Br)cc2N(C)C1=O (stereo not shown) [BC19910] .
5.00 to 6.00

If you can, please state the reported pIC50 value of COc1ccc(NS(=O)(=O)c2cc(Br)cc3c2OC(CC(C)C)C(=O)N3)cc1Cl (stereo not shown) [BC19779] .
6.00 to 7.00

If you can, please state the reported pIC50 value of COc1ccc(NS(=O)(=O)c2cc3c(cc2Br)NC(=O)C(CC(C)C)O3)cc1Cl (stereo not shown) [BC19780] .
5.00 to 6.00
